Recorded values, source paper PMC8395335.

assay protocol: Pharmacokinetic analysis of drug-drug interactions (plasma, FC concentration, FC penetration)
Assay type: in vivo, mice
measurement context: Albino Swiss, mouse, frontal cortex/plasma, intraperitoneal, chronic (7 days with MK-801), combination F15599 0.05 mg/kg + VU0238429 1 mg/kg; read-out: PFC Penetration
assay endpoint: Kp at 30 min
Enter the number alone.

**Q:** I would be grateful if you could share the reported Kp at 30 min for "COc1ccc(CN2C(=O)C(=O)c3cc(OC(F)(F)F)ccc32)cc1" .
**A:** 0.15

###

assay protocol: in vivo
Set-up: species or system mice
measurement context: Albino Swiss, mouse, ip, 0.1 mg/kg, Cmax PFC (FC)
Protocol: The experiment was performed using the methods described by Bridges et al. and in our previous studies. The pharmacokinetic analysis was performed in the blood and prefrontal cortex. […] Plasma and FC samples were stored at −80 °C until analysis. The drug was administered at a dose of 0.1 mg/kg; brain and tissue samples were collected 15, 30, 60, and 120 min after administration. […]
assay endpoint: Cmax (ng/mL)
Response body: numeric value in ng/mL, unit text excluded.

**Q:** I would be grateful if you could share the reported Cmax for Cc1cnc(CNCC2(F)CCN(C(=O)c3ccc(F)c(Cl)c3)CC2)nc1 [F15599] .
**A:** 48

###

assay protocol: Pharmacokinetic analysis of drug-drug interactions (plasma, FC concentration, FC penetration)
Type: in vivo, mice
measurement context: Albino Swiss, mouse, frontal cortex/plasma, intraperitoneal, acute, combination F15599 0.05 mg/kg + VU0357017 1 mg/kg; read-out: PFC Penetration
Procedure: The experiment was performed using the methods described by Bridges et al. and in our previous studies. The pharmacokinetic analysis was performed in the blood and prefrontal cortex. […] Plasma and FC samples were stored at −80 °C until analysis. […] Brain penetration was calculated as FC/plasma ratio × 100%.
assay endpoint: Kp at 30 min
Enter the number alone.

**Q:** I would be grateful if you could share the reported Kp at 30 min for "CCOC(=O)N1CCC(NCCNC(=O)c2ccccc2C)CC1" .
**A:** 0.31

###

assay protocol: Pharmacokinetic analysis of drug-drug interactions (plasma, FC concentration, FC penetration)
Assay type: in vivo, mice
measurement context: Albino Swiss, mouse, plasma, intraperitoneal, chronic (7 days with MK-801), combination F15599 0.05 mg/kg + VU0357017 0.15 mg/kg; read-out: Plasma
assay endpoint: concentration at 30 min (ng/mL)
Response body: numeric value in ng/mL, unit text excluded.

**Q:** I would be grateful if you could share the reported concentration at 30 min for "CCOC(=O)N1CCC(NCCNC(=O)c2ccccc2C)CC1" .
**A:** 5.13
